- STUDY_SYSTEM: Mu-type opioid receptor (Homo sapiens, UniProt P35372); also: assay procedure not described here
- Sequence (P35372 whole entry): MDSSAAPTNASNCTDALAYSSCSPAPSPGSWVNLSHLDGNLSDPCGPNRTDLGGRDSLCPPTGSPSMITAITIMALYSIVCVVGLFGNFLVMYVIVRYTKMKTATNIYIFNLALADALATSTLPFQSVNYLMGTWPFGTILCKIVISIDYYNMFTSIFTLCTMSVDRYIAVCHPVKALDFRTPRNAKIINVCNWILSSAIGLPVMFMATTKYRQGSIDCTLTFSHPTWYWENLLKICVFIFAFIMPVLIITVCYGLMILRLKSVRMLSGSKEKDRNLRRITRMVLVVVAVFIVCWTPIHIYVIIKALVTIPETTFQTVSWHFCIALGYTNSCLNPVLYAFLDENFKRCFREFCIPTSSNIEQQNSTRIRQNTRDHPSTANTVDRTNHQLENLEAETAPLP
OBSERVATION_TYPE: AC50

Worked cases, answers included:
COMPOUND	STUDY_SYSTEM	REPORTED_MEASUREMENT
CCOc1cc([C@@H](CS(C)(=O)=O)N2C(=O)c3cccc(NC(C)=O)c3C2=O)ccc1OC	Mu-type opioid receptor (Homo sapiens, UniProt P35372)	> 30 µM
CC(O)(CS(=O)(=O)c1ccc(F)cc1)C(=O)Nc1ccc(C#N)c(C(F)(F)F)c1 (centres undefined) [BICALUTAMIDE]	Mu-type opioid receptor (Homo sapiens, UniProt P35372)	> 10 µM
COC(=O)[C@H]1[C@H]2C[C@@H]3c4[nH]c5cc(OC)ccc5c4CCN3C[C@H]2C[C@@H](OC(=O)c2cc(OC)c(OC)c(OC)c2)[C@@H]1OC [RESERPINE]	Mu-type opioid receptor (Homo sapiens, UniProt P35372)	> 30 µM
C=C1c2cccc(O)c2C(=O)C2=C(O)[C@]3(O)C(=O)C(C(N)=O)=C(O)[C@@H](N(C)C)[C@@H]3[C@@H](O)[C@H]12 [METHACYCLINE]	Mu-type opioid receptor (Homo sapiens, UniProt P35372)	> 30 µM
Cc1ccnc2c1NC(=O)c1cccnc1N2C1CC1 [NEVIRAPINE]	Mu-type opioid receptor (Homo sapiens, UniProt P35372)	> 10 µM
O=C(O)Cc1ccccc1Oc1ccc(Cl)cc1Cl [FENCLOFENAC]	Mu-type opioid receptor (Homo sapiens, UniProt P35372)	> 30 µM
CC(CN(C)C)C(C)(O)Cc1ccc(Cl)cc1 (centres undefined) [CLOBUTINOL]	Mu-type opioid receptor (Homo sapiens, UniProt P35372)	> 30 µM
O=C(O)c1cccnc1Nc1cccc(C(F)(F)F)c1 [NIFLUMIC ACID]	Mu-type opioid receptor (Homo sapiens, UniProt P35372)	> 30 µM

Next:
Query: # AC50 lookup, item CN1Cc2c(N)cccc2C(c2ccccc2)C1 (centres undefined) [NOMIFENSINE]
Response: 4.4 µM

These measurements were taken from ChEMBL document CHEMBL5291721.
